The origin of these recorded values is ChEMBL document CHEMBL3137667.

# condition summary: human
Where a SMILES comes first, the peptide text is derived from it. Bridges are numbered along the chain shown (N, C = ends). [ ]: non-standard residue; d: D form.
Here the recorded Hepatotoxicity (malignant tumour) is given for each entry.
Answer with a bare number; do not write a unit.

Before answering, review these 10 worked examples.
Cc1c(N(C)CS(=O)(=O)[O-])c(=O)n(-c2ccccc2)n1C.[Na+] [DIPYRONE SODIUM]: 0
CC(NN)c1ccccc1 (stereo not drawn): 0
CC(Cc1ccccc1)NCc1ccccc1Cl (stereo not drawn): 0
CO[C@H]1O[C@@H]2O[C@@]3(C)CC[C@H]4[C@H](C)CC[C@@H]([C@H]1C)[C@@]24OO3: 0
CCC1=C(C)CN(C(=O)NCCc2ccc(S(=O)(=O)NC(=O)N[C@H]3CC[C@H](C)CC3)cc2)C1=O [GLIMEPIRIDE]: 0
CC[C@H]1OC(=O)[C@H](C)[C@@H](O[C@H]2C[C@@](C)(OC)[C@@H](O)[C@H](C)O2)[C@H](C)[C@@H](O[C@@H]2O[C@H](C)C[C@H](N(C)C)[C@H]2O)[C@](C)(OC)C[C@@H](C)C(=O)[C@H](C)[C@@H](O)[C@]1(C)O: 0
CCCNCC(O)COc1ccccc1C(=O)CCc1ccccc1 (stereo not drawn): 0
CC(C)[C@@H]1NC(=O)[C@H](CCCCN)NC(=O)[C@@H](Cc2c[nH]c3ccccc23)NC(=O)[C@H](Cc2ccc(O)cc2)NC(=O)[C@@H](NC(=O)[C@H](N)Cc2ccccc2)CSSC[C@@H](C(=O)N[C@@H](Cc2c[nH]c3ccccc23)C(N)=O)NC1=O [VAPREOTIDE] (H-[dF]CY[dW]KVCW-NH2; disulfide 2-7): 0
CC(C)COCC(CN(Cc1ccccc1)c1ccccc1)N1CCCC1 (stereo not drawn): 0
CC(=O)OCC1=C(C(=O)O)N2C(=O)[C@@H](NC(=O)CC#N)[C@H]2SC1: 0

Looking for the measured Hepatotoxicity (malignant tumour) of C[C@H]1CC(=O)C[C@@H]2CC[C@H]3[C@@H]4CC[C@H](O)[C@@]4(C)CC[C@@H]3[C@]21C , can you help?
0

Try this compound next: CC[C@H]1OC(=O)[C@H](C)[C@@H](O[C@H]2C[C@@](C)(OC)[C@@H](O)[C@H](C)O2)[C@H](C)[C@@H](O[C@@H]2O[C@H](C)C[C@H](N(C)C)[C@H]2O)[C@](C)(O)C[C@](C)(F)C(=O)[C@H](C)[C@@H](O)[C@]1(C)O
0

Try this compound next: CN1CCc2cccc3c2[C@H]1Cc1ccc(O)c(O)c1-3
0

* * *

# condition summary: human, serum
Here the recorded Hepatotoxicity (acute) is given for each entry.
Answer with a bare number; do not write a unit.

Before answering, review these 5 worked examples.
CC(=O)O[C@H]1C[C@@]2(C)[C@@H](C[C@@H](O)[C@H]3[C@@]4(C)CC[C@@H](O)[C@@H](C)[C@@H]4CC[C@@]32C)/C1=C(\CCC=C(C)C)C(=O)O: 19
O=C1Nc2ccc(Cl)cc2C(c2ccccc2Cl)=NC1O (stereo unspecified): 1
CC1Cc2ccccc2N1NC(=O)c1ccc(Cl)c(S(N)(=O)=O)c1 (stereo unspecified) [INDAPAMIDE]: 4
Nc1ncn([C@@H]2O[C@H](CO)[C@@H](O)[C@@H]2O)c(=O)n1: 0
NC(=O)N1C(=O)/C(=C(\O)c2cccs2)c2cc(Cl)ccc21: 2

Looking for the measured Hepatotoxicity (acute) of NC1=NC(=O)C(c2ccccc2)O1 (stereo unspecified) , can you help?
16

Try this compound next: CN(C)CCn1nnnc1SCC1=C(C(=O)O)N2C(=O)[C@@H](NC(=O)Cc3csc(N)n3)[C@H]2SC1
1

* * *

# condition summary: human, Liver
Here the recorded Hepatotoxicity (granulomatous hepatitis) is given for each entry.
Answer with a bare number; do not write a unit.

Before answering, review these 3 worked examples.
CNCCC=C1c2ccccc2CCc2ccccc21 [NORTRIPTYLINE]: 0
Cn1cnc([N+](=O)[O-])c1Sc1ncnc2nc[nH]c12 [AZATHIOPRINE]: 2
Nc1nc(-c2ccccc2)c(Br)c(=O)[nH]1 [BROPIRIMINE]: 0

Looking for the measured Hepatotoxicity (granulomatous hepatitis) of COc1cc(Cc2cnc(N)nc2N)cc(OC)c1OC.Cc1cc(NS(=O)(=O)c2ccc(N)cc2)no1 [CO-TRIMOXAZOLE] , can you help?
1

Try this compound next: CC1(C)S[C@@H]2[C@H](NC(=O)[C@H](NC(=O)N3CCN(S(C)(=O)=O)C3=O)c3ccccc3)C(=O)N2[C@H]1C(=O)O [MEZLOCILLIN]
0

Try this compound next: Nc1ncn([C@@H]2O[C@H](CO)[C@@H](O)[C@@H]2O)c(=O)n1 [FAZARABINE]
0

Try this compound next: Cc1ccc(-c2cc(C(F)(F)F)nn2-c2ccc(S(N)(=O)=O)cc2)cc1 [CELECOXIB]
0

Try this compound next: O=C(OCC(O)CO)c1ccccc1Nc1ccnc2cc(Cl)ccc12 (stereo not given) [GLAFENINE]
0

* * *

# condition summary: human, serum
Here the recorded Hepatotoxicity (moderate) is given for each entry.
Answer with a bare number; do not write a unit.

Looking for the measured Hepatotoxicity (moderate) of CC[C@@H](CO)NC(=O)[C@@H]1C=C2c3cccc4[nH]cc(c34)C[C@H]2N(C)C1 , can you help?
1

* * *

# condition summary: human
Here the recorded Hepatotoxicity (granulomatous hepatitis) is given for each entry.
Answer with a bare number; do not write a unit.

Before answering, review these 3 worked examples.
NC[C@H]1O[C@H](O[C@H]2[C@H](O)[C@@H](O[C@H]3O[C@H](CO)[C@@H](O)[C@H](N)[C@H]3O)[C@H](N)C[C@@H]2N)[C@H](N)C[C@@H]1O: 0
Cc1oc(=O)oc1COC(=O)[C@@H]1N2C(=O)[C@@H](NC(=O)[C@H](N)c3ccccc3)[C@H]2SC1(C)C: 0
CCc1c2c(nc3ccc(OC(=O)N4CCC(N5CCCCC5)CC4)cc13)-c1cc3c(c(=O)n1C2)COC(=O)[C@]3(O)CC: 0

Looking for the measured Hepatotoxicity (granulomatous hepatitis) of CC(=O)Nc1c(I)c(NC(C)=O)c(I)c(C(=O)O)c1I , can you help?
0

Try this molecule next: CC1(C)S[C@@H]2[C@H](NC(=O)[C@H](C(=O)O)c3ccsc3)C(=O)N2[C@H]1C(=O)O.O=C(O)[C@H]1/C(=C/CO)O[C@@H]2CC(=O)N21
0

Try this molecule next: Sc1ncnc2[nH]ncc12
0

Try this molecule next: CN1C(=O)CC(=O)N(c2ccccc2)c2cc(Cl)ccc21
0

Try this molecule next: CC(C)/N=C/Nc1ccc(-c2c[nH]cn2)cc1
0

* * *

# condition summary: human, serum
Here the recorded Hepatotoxicity (acute) is given for each entry.

CN(C)C/C=C(/c1ccc(Br)cc1)c1cccnc1 [ZIMELDINE]: 4
CN1C(=O)OC(C)(C)C1=O [TRIMETHADIONE]: 3
Cc1ccc(-c2cc(C(F)(F)F)nn2-c2ccc(S(N)(=O)=O)cc2)cc1 [CELECOXIB]: 8
COc1ccc(OC[C@H]2CN(C)CC[C@@H]2c2ccccc2)cc1 [FEMOXETINE]: 1

Moving on to the next molecule.
Looking for the measured Hepatotoxicity (acute) of Cc1ccc(S(=O)(=O)NC(=O)NN2CC3CCCC3C2)cc1 (stereo not given) [GLICLAZIDE] , can you help?
3

* * *

# condition summary: human
measurement type: Hepatotoxicity (choleostasis)
Answer with a bare number; do not write a unit.

Before answering, review these 3 worked examples.
S=P(N1CC1)(N1CC1)N1CC1: 1
CNC(=C[N+](=O)[O-])NCCSCc1csc(CN(C)C)n1: 0
C[C@](N)(Cc1ccc(O)c(O)c1)C(=O)O: 10

Looking for the measured Hepatotoxicity (choleostasis) of O=C(NCCN1CCC(n2c(=O)[nH]c3cc(Cl)ccc32)CC1)c1ccc(F)cc1 [HALOPEMIDE] , can you help?
0

Try this compound next: CCCCC(C)(O)C/C=C/[C@H]1[C@H](O)CC(=O)[C@@H]1CCCCCCCO (stereo partly drawn)
0

Try this compound next: Nc1nnc(-c2cccc(Cl)c2Cl)c(N)n1
1

Try this compound next: COc1ccc(CN2CCNCC2)c(OC)c1OC
1

Try this compound next: CCC(Cc1c(I)cc(I)c(N)c1I)C(=O)O (stereo not drawn)
0

Try this compound next: Nc1ncnc2c1ncn2[C@@H]1O[C@H](CO)[C@@H](O)[C@@H]1O
0

Try this compound next: C[C@]1(O)CC[C@H]2[C@@H]3CCC4=CC(=O)CC[C@@H]4[C@H]3CC[C@@]21C
1

Try this compound next: C[C@H](CSC(=O)c1ccccc1)C(=O)N1C[C@@H](Sc2ccccc2)C[C@H]1C(=O)O
0

Try this compound next: CC[C@]1(O)CC[C@H]2[C@@H]3CCC4=CC(=O)CC[C@@H]4[C@H]3CC[C@@]21C
6

Try this compound next: CC(=O)NCCCCCCNC(C)=O [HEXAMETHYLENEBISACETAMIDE]
0

Try this compound next: COCc1c(C(C)C)nc(C(C)C)c(/C=C/[C@@H](O)C[C@@H](O)CC(=O)O)c1-c1ccc(F)cc1
1

Try this compound next: C[C@@H]1C[C@H](C)CN(S(=O)(=O)c2ccc(Cl)c(C(=O)O)c2)C1
0

Try this compound next: CCc1oc2ccccc2c1C(=O)c1ccc(O)cc1
0

Try this compound next: CCCN1CCO[C@@H]2c3cc(O)ccc3CC[C@H]21 [NAXAGOLIDE]
0

Try this compound next: O=C(c1ccc(OCCN2CCCCC2)cc1)c1c(-c2ccc(O)cc2)sc2cc(O)ccc12
1

Try this compound next: O=C(N[C@H](CO)[C@H](O)c1ccc([N+](=O)[O-])cc1)C(Cl)Cl
1

Try this compound next: CC(CCC(=O)O)C1CC[C@H]2[C@@H]3CC[C@@H]4C[C@H](O)CC[C@]4(C)[C@H]3CC[C@]12C (stereo partly drawn)
0

Try this compound next: CNc1nc(N(C)C)nc(N(C)C)n1
0

Try this compound next: CCc1nc(N)nc(N)c1-c1ccc(Cl)cc1
1

Try this compound next: CCN(CC)CCCN(c1ccccc1)C1Cc2ccccc2C1
7
